Tested on: MS2 coat protein
Test: apparent Kd, MS2 coat protein; higher = weaker binding; RNA-MaP array; FMN 200 µM where present
Details: designed as: OFF switch for flavin mononucleotide; no ligand
Recorded measurements of apparent Kd, one per entry
Express your answer in nM, writing the number without its unit.

# ordered residues, apparent Kd [nM]
rows = [
    ("GAGCUAUGAGGAUAUGCAUAUAUGCGGUUUCGUGUGGUACUACAUGAGGAUCACCCAUGUAGAAGGCGUGGCAG", 16),
    ("UAAGUUUUGGUAGGAUAUACUUUAAAUUUCUCUAUCCAUACAUGAGGAUCACCCAUGUUUACAUUGUAGAAGGACCUUUAUGUU", 36.8),
    ("UUUAUAUAGUAAGGAUAUGUAUUAAUUUUAUAGACAGAAGGUACUGACAUGAGGAUCACCCAUGUUUUAGUGUGGGCAUGUAGU", 358),
]

Consider the record given below.
Ask: Provide the documented apparent Kd with MS2 coat protein as the system for `UAUGGUUAAGUCAGGAUAUGCUCAUAGAGGUCUGUGCAGAAGGGACAUGAGGAUCACCCAUGUAUGGUCGUGUU`
Result: 254

----------
System: MS2 coat protein
Assay: apparent Kd, MS2 coat protein; higher = weaker binding; RNA-MaP array; tryptophan 2.4 mM where present
Conditions: ligand present: tryptophan; designed as: OFF switch for tryptophan
endpoint name: apparent Kd (µM)
Express your answer in µM, writing the number without its unit.

Solved entries:
# ordered residues, unit symbol, apparent Kd
rows = [
    ("GAGGAAACUCACAUGAGGAUCACCCAUGUACGAGGACCGGUACGGCCGCCACUCGAAACCAUGGGCGGUAGUACAUGGAAACAUG", "µM", 0.263),
    ("ACCUGCGUUUGAUUCUAUCAGACGCAGGUUCGAGGACCGGUACGGCCGCCACUCGGACAUGAGGAUCACCCAUGUUUGACAUGGG", "µM", 0.211),
    ("AAACAUGAGGCGGCCGCCACUGUAUGAACAUGAGGAUCACCCAUGUAUGUACCCAUGUGUGUACACAGGACCGGGCCAUGUGGAU", "µM", 0.0199),
]

Ask: Report apparent Kd for `CCUAUGCAGUCGGCCGCCACUGAUAACGUUAUCGUUACCUCAGAAACAUGAGGAUCACCCAUGUACAGGACCGGGACUGUAUAGG` please.
Result: 0.0153

Ask: Report apparent Kd for `ACGACGGCUGCGGCCGCCACUGUACAUGAGGAUCACCCAUGUGUAGUAAUUGGGACCCUGUGUUACAGGACCGGGUAGUUGAUUA` please.
Result: 0.0699

Ask: Report apparent Kd for `UUCAGCUAGUCGGCCGCCACUACAUGAGGAUCACCCAUGUCGGUCCUCACUGCUUCGGCAGUGUGUAGGACCGGGACUAGCUGAG` please.
Result: 0.72

Ask: Report apparent Kd for `AACAUGAGGAUCACCCAUGUGUCCUCGAAACGAGGACCGGUACGGCCGCCACUCGACGUAUGUUGACGAAAAGUCAGCAUACGAA` please.
Result: 0.885

----------
System: MS2 coat protein
Test: apparent Kd, MS2 coat protein; higher = weaker binding; RNA-MaP array; FMN 200 µM where present
Conditions: designed as: OFF switch for flavin mononucleotide; no ligand
endpoint name: apparent Kd (nM)
Express your answer in nM, writing the number without its unit.

# ordered residues, unit symbol, apparent Kd
records = [
    ("UUGAUGUCAGGAUAUGCUUAAUAUAUUUUAUUAUAAUAUAUACAUGAGGAUCACCCAUGUAGAAGGGACAUUAU", "nM", 29.1),
    ("GUAUCGUGAGGAUAUCAUGAUUGACUUAGUUUAUGUCAGCGUGAGAAGGCACAUGAGGAUCACCCAUGUGAUUA", "nM", 24.7),
]

Ask: Provide the documented apparent Kd with MS2 coat protein as the system for `ACAUGAGGAUCACCCAUGUAUUCAUAGGAUAUACUACAUGAGUUUCAUUCAUGUAAACUUGUAUUGUAGAAGGAUGUUACAUGU`
Result: 16.4

Ask: Provide the documented apparent Kd with MS2 coat protein as the system for `AAAUUUAACGAAGGAUAUACUAACAUGAGGAUCACCCAUGUGUGCUUCGUGUUGCUGAAAUUCGGGUAGAAGGUCGUAUACAUA`
Result: 54.8

Ask: Provide the documented apparent Kd with MS2 coat protein as the system for `CCAGGCUGUGUGAGGAUAUGCUGGUCCUUGGAUCAGCAGAAGGCACAUGAGGAUCACCCAUGUGAAAAGCUUGG`
Result: 17.4

Ask: Provide the documented apparent Kd with MS2 coat protein as the system for `AAAAAACAUGAGGAUCACCCAUGUCAGGAUAUCUGGAGAAACGGAAAGAAAAAGAAACGGAGAAGGGACAUAAA`
Result: 41.1

Ask: Provide the documented apparent Kd with MS2 coat protein as the system for `GACUAGGCAGGAUAUACAUGAGGAUCACCCAUGUGUCUGCGUUAAGCACGUGAAGACGGUAGAAGGGCCUUCAC`
Result: 11.6

Ask: Provide the documented apparent Kd with MS2 coat protein as the system for `UAGCCUGUAGGAGUGGAAGCCGGUAGAAGGCAGCAUUGAUGGACCGACAUGAGGAUCACCCAUGUUGAGGAUAUACCGGGCACU`
Result: 39.3

Ask: Provide the documented apparent Kd with MS2 coat protein as the system for `UGAAUGUGAGGAUAUGGUGAGUAGUGCCUGAGCGCUGCUCACCAGAAGGCACAUGAGGAUCACCCAUGUACUUG`
Result: 66.9

Ask: Provide the documented apparent Kd with MS2 coat protein as the system for `ACGACGAAAGUCGAACGAUGUACGAGAAGGACAUGAGGAUCACCCAUGUUAUCUGUUAUAGACAUGUAGGAUAUCGUACAUCGA`
Result: 8.25

Ask: Provide the documented apparent Kd with MS2 coat protein as the system for `GGAUAAUUGAUCCUUUUUUAUUACAUGAGGAUCACCCAUGUGCAGGAUAUCGAUUAUUAUAGUUUCGAGAAGGGCAAGAAUUGU`
Result: 73.4

Ask: Provide the documented apparent Kd with MS2 coat protein as the system for `AAGCUUGAUCCUCGUGUAUACAUGAGGAUCACCCAUGUGACGCAGGAUAUAGGCGUGUUAGUAGCCUAGAAGGGCGAGCAGCGA`
Result: 128

Ask: Provide the documented apparent Kd with MS2 coat protein as the system for `UAUAUAUAGUAAGGAUAUGUAUAUAUGUUAUAAACAGAAGGUACUGACAUGAGGAUCACCCAUGUUUUAGUGUGGGCAUGUAGA`
Result: 66.2

Ask: Provide the documented apparent Kd with MS2 coat protein as the system for `UCGGCGCGAGGAUAUACGUUUGCGCUUUUUCGUUUUUGUGUACAUGAGGAUCACCCAUGUAGAAGGCGCGCCGC`
Result: 16.4

Ask: Provide the documented apparent Kd with MS2 coat protein as the system for `ACUAGAUGAGGAUAUACACAUUUUAGUGUUCCUCUAGAUUAACAUGAGGAUCACCCAUGUAGAAGGCAUCAUUU`
Result: 78.5

Ask: Provide the documented apparent Kd with MS2 coat protein as the system for `GUCCAGUUAGGAUAUCAAUGCCACAACAUGAGGAUCACCCAUGUUUGGGUCCCUCACCAAUGAGAAGGAACGGGAC`
Result: 34.7

Ask: Provide the documented apparent Kd with MS2 coat protein as the system for `GUCAGCUCGUGAGGAUAUACAACACUGCUUCGGCAGUGUAUUAAGCUCACAUGAGGAUCACCCAUGUAGAAGGCACGAGCUGAU`
Result: 5.37

Ask: Provide the documented apparent Kd with MS2 coat protein as the system for `GUCAGCUCGUGAGGAUAUACAACACUGCUUCUGCAGUGUAUUAAGAUCACAUGAGGAUCACCCAUGUAGAAGGCACGAGCUGAU`
Result: 12.8

Ask: Provide the documented apparent Kd with MS2 coat protein as the system for `GGAUAGGACAGAGGAUAUACCGAUAGGAGAUACUAUCGACUAUUCCUCACAUGAGGAUCACCCAUGUAGAAGGCUGUCCUAUCG`
Result: 16.9

Ask: Provide the documented apparent Kd with MS2 coat protein as the system for `UUGAGGUAGGAGAAGGACAGAGGCGGAAACACAAACAUGAGGAUCACCCAUGUAGGAUAUCCUACCUAACGAGGAUACCUCAAG`
Result: 14.7

Ask: Provide the documented apparent Kd with MS2 coat protein as the system for `GAGGUAUAAGGAUAUACAUAGAUACAGACACAUGUUCAAGUACAUGAGGAUCACCCAUGUAGAAGGUAUAUAUC`
Result: 33.6

Ask: Provide the documented apparent Kd with MS2 coat protein as the system for `AACUUCCCGUCAGGAUAUCGCCGUAGGUCCUCGGGUCUCGCCGUCAUACAUGAGGAUCACCCAUGUGAGAAGGGACGGGAUUCA`
Result: 21.8

Ask: Provide the documented apparent Kd with MS2 coat protein as the system for `CGCCACUUAACAGCGGCGCGGUCGAGAAGGGUACAUGAGGAUCACCCAUGUCACGUUCCUCCUGUACAGGAUAUCGUACGGGUA`
Result: 65.6

Ask: Provide the documented apparent Kd with MS2 coat protein as the system for `UUUAUGUGAGGAUAUCAGUAGUAAAAAAAUAAAAUUACUACUGAGAAGGCACAUGAGGAUCACCCAUGUCCUUC`
Result: 18.6

Ask: Provide the documented apparent Kd with MS2 coat protein as the system for `UUUUAACAUGAGGAUCACCCAUGUGAGGAUAUCGAAAUUUAUAUUAAUAUUAUUUUUUCGAGAAGGCACAUUUU`
Result: 124

Ask: Provide the documented apparent Kd with MS2 coat protein as the system for `GUGUAGUGAGGAUAUACAUGAGGAUCACCCAUGUGAAUAAGAUAGAAUAAGAUAAAGUGUAGAAGGCAUAGUGU`
Result: 40.2
